Test: gradient 5% acetonitrile 3 min, to 50% in 2 min, to 85% in 15 min, held 3 min, 100 µL/min
Details: column: Zorbax Extend-C18 2.1 x 50 mm; eluents: water / acetonitrile, 0.1% formic acid
readout label: RP-LC retention time (s)

{"columns": ["molecule", "unit string", "RP-LC retention time"],
 "data": [
  ["COC(=O)c1ccc2c(=O)n(-c3ccc(C)c(F)c3)c(N3CCN(c4ccccn4)CC3)nc2c1", "s", 714],
  ["Cc1sc2ccn(C)c(=O)c2c1C(=O)NCC1CCCCC1", "s", 816],
  ["O=C(NCC(c1cccnc1)c1c[nH]c2ccccc12)Nc1ccc(Br)cc1F (centres undefined)", "s", 716],
  ["Cc1cccc(NC(=O)N2CCC(c3nc(C(=O)N4CCCC4)c(C)o3)CC2)c1C", "s", 781]
]}

###

Assay: gradient 5% acetonitrile 3 min, to 50% in 2 min, to 85% in 15 min, held 3 min, 100 µL/min
Settings: column: Zorbax Extend-C18 2.1 x 50 mm; eluents: water / acetonitrile, 0.1% formic acid
readout label: RP-LC retention time (s)

a = COc1ccc(Cl)cc1S(=O)(=O)NCCc1cn(CC(C)C)c2ncccc12
b = COc1ccc(-c2cc(C(=O)N(C)C3CCN(C)CC3)nn2C2CCS(=O)(=O)C2)cc1 (centres undefined)
**Query** Please indicate which item has the smaller measured RP-LC retention time: a versus b Kindly state the label of the option you pick.
**Result** b
(b: 600 s, a: 987 s)

###

Experiment: gradient 5% acetonitrile 3 min, to 50% in 2 min, to 85% in 15 min, held 3 min, 100 µL/min
Settings: column: Zorbax Extend-C18 2.1 x 50 mm; eluents: water / acetonitrile, 0.1% formic acid
readout label: RP-LC retention time (s)

{"columns": ["structure", "measured"],
 "data": [
  ["CCNC(=O)c1cnn(-c2cc(-c3nc(C4CC4)no3)ccn2)c1C", 826],
  ["Cc1cccc(C)c1NC(=O)CSc1cc(N2CCN(c3ccccc3F)CC2)ncn1", 1100],
  ["COc1ccc(CNC(=O)c2[nH]c3cc(C)sc3c2CN2CCCC2)cc1", 679],
  ["O=C(Nc1ccc2c(c1)CCC2)Nc1cccn2ncnc12", 891]
]}

###

Assay: gradient 5% acetonitrile 3 min, to 50% in 2 min, to 85% in 15 min, held 3 min, 100 µL/min
Details: column: Zorbax Extend-C18 2.1 x 50 mm; eluents: water / acetonitrile, 0.1% formic acid
readout label: RP-LC retention time (s)

{"columns": ["structure", "readout label", "measured"],
 "data": [
  ["CC(C)n1cnc(S(=O)(=O)N2CCC(C(=O)NCc3ccc(Cl)cc3)CC2)c1", "RP-LC retention time", 749],
  ["CNC(=O)c1cn(-c2ccc(-c3nc(C(C)(C)C)no3)cn2)cn1", "RP-LC retention time", 806],
  ["COc1ccc2[nH]cc(C3=CCNCC3)c2c1", "RP-LC retention time", 648],
  ["Cc1ccccc1Cc1nc2ccccc2n1CC(N)=O", "RP-LC retention time", 570]
]}

###

Test: gradient 5% acetonitrile 3 min, to 50% in 2 min, to 85% in 15 min, held 3 min, 100 µL/min
Conditions: column: Zorbax Extend-C18 2.1 x 50 mm; eluents: water / acetonitrile, 0.1% formic acid
readout label: RP-LC retention time (s)

{"columns": ["structure", "measured"],
 "data": [
  ["CCOc1ccccc1NC(=O)Cn1c(CC)nc2c(c1=O)CN(Cc1ccccc1)CC2", 687],
  ["CSc1nnc(-c2nn(C)c3c2CN(C(=O)c2ccc(F)c(F)c2)CC3)n1C", 720],
  ["Cc1ccc(-c2nc3cnccn3c2Nc2ccc(C(=O)O)cc2)cc1", 706]
]}

###

Experiment: gradient 5% acetonitrile 3 min, to 50% in 2 min, to 85% in 15 min, held 3 min, 100 µL/min
Settings: column: Zorbax Extend-C18 2.1 x 50 mm; eluents: water / acetonitrile, 0.1% formic acid
readout label: RP-LC retention time (s)

{"columns": ["compound", "unit string", "measured"],
 "data": [
  ["CCCc1noc(-c2ccc3nnc(CC(=O)Nc4ccc(F)cc4)n3c2)n1", "s", 848],
  ["COC[C@@H]1CN(Cc2ccc3[nH]ccc3c2)C[C@H]1c1ccncc1", "s", 581],
  ["Cc1ccc(CN2CC(=O)N3CCc4c([nH]c5ccccc45)C3(C)C2=O)cc1 (configuration not stated)", "s", 1020],
  ["CCN1CCN(Cc2ccc(C(=O)NCc3ccc(C(F)(F)F)cc3)cc2)C(=O)C1=O", "s", 744],
  ["Cc1csc(-c2cc(S(=O)(=O)NC(C)C)c(C)n2C)n1", "s", 852]
]}

A = N#Cc1cccc(NC(=O)CSc2nc(N3CCc4ccccc4C3)nc3ccccc23)c1
B = COc1ccc(-c2nc(-c3ccc(S(=O)(=O)N4CCC(C)CC4)cc3)no2)cc1
**Query** Lab note: check whether A or B shows the higher recorded RP-LC retention time. Give the chosen item's label as your response.
**Result** B
(B: 1340 s, A: 862 s)

I = Cc1oc2ccn(Cc3cccc(F)c3)c(=O)c2c1C(=O)NCc1cc(F)cc(F)c1
II = Cc1ccccc1C(=O)CC1(O)C(=O)Nc2ccc(F)cc21 (configuration not stated)
**Query** Hi! Which is lower in terms of RP-LC retention time, the first one I or the second one II ? Returns: label corresponding to the selected item.
**Result** II
(II: 730 s, I: 1130 s)

a = O=S(=O)(Cc1ccccc1)N1CCC(Cc2nncn2-c2ccccc2)C1 (configuration not stated)
b = CCn1nc(C(=O)Nc2nc3c(s2)CCc2ccccc2-3)cc1C
**Query** Just tell me: smaller RP-LC retention time value, a or b ? Answer format: the label of the selected item.
**Result** a
(a: 729 s, b: 1060 s)

###

Experiment: gradient 5% acetonitrile 3 min, to 50% in 2 min, to 85% in 15 min, held 3 min, 100 µL/min
Conditions: column: Zorbax Extend-C18 2.1 x 50 mm; eluents: water / acetonitrile, 0.1% formic acid
readout label: RP-LC retention time (s)

As a guide, the following entries are already answered.
{"columns": ["compound", "unit string", "RP-LC retention time"],
 "data": [
  ["COc1ccc(Cl)c2c(=O)c3c([nH]c12)CCN(CC(=O)Nc1ccccc1)C3", "s", 617],
  ["O=C(Nc1cccc(Cl)c1)C1CCN(c2nccnc2Sc2ccccc2)CC1", "s", 1170],
  ["Cc1ccc(-c2noc(Cc3nnc(-c4ccc(C)c(C)c4)o3)n2)cc1", "s", 1200],
  ["CC(C)Cn1cc(CCNS(=O)(=O)c2cccc(C(F)(F)F)c2)c2cccnc21", "s", 1030],
  ["CC(NC(=O)Cn1cc(C(=O)C2CC2)c2ccccc21)c1ccc2c(c1)OCCCO2 (stereo unspecified)", "s", 866],
  ["COc1ccc(-c2nc3nc(C)cc(C)n3c2Nc2ccc(Cl)cc2)cc1", "s", 730],
  ["CCc1nnc(NS(=O)(=O)c2ccc(NC(=O)c3ccc([N+](=O)[O-])s3)cc2)s1", "s", 769],
  ["CN(C(=O)Cn1cncc(C(=O)NC2CCCC2)c1=O)c1ccccc1", "s", 767],
  ["CCn1ncc2ccc(C(=O)NC)cc21", "s", 608],
  ["CCCCn1cc(S(=O)(=O)Nc2cccc(OC)c2)c2cccnc21", "s", 912]
]}

P = CNCC[C@H](Oc1cccc2ccccc12)c1cccs1
Q = COc1ccc(-c2nc(-c3ccc4c(c3)nc(C)c(=O)n4C(C)C)no2)cc1
**Query** Which entry has a larger number for RP-LC retention time, P or Q ? Record your answer as the label of the chosen record.
**Result** Q

A = Cc1ccn2c(Nc3ccc4c(c3)OCCO4)c(-c3ccc(N4CCOCC4)cc3)nc2c1
B = O=S(=O)(Nc1cnn(-c2ncc(N3CCCC3)cn2)c1)c1ccc2c(c1)CCCC2
**Query** Given the listed items, does A or B have the lesser reported RP-LC retention time? Bench note: the answer is the label of the chosen record.
**Result** A
(A: 680 s, B: 983 s)

1 = CCCn1c2ccccc2c2cnn(CC(=O)NCCN3CC(C)CC(C)C3)c(=O)c21 (stereo unspecified)
2 = O=S(=O)(c1cccc(F)c1)N1CCC(c2noc(-c3ccc(F)cc3)n2)CC1
**Query** Lab note: check whether 1 or 2 shows the higher recorded RP-LC retention time. Kindly give the label for the entry you pick.
**Result** 2

###

Assay: gradient 5% acetonitrile 3 min, to 50% in 2 min, to 85% in 15 min, held 3 min, 100 µL/min
Details: column: Zorbax Extend-C18 2.1 x 50 mm; eluents: water / acetonitrile, 0.1% formic acid
readout label: RP-LC retention time (s)

{"columns": ["molecule", "readout label", "measured"],
 "data": [
  ["CC1CCCN(C(=O)c2ccc(CN3CCN(Cc4ccc(F)cc4)C(=O)C3=O)cc2)C1 (configuration not stated)", "RP-LC retention time", 788],
  ["COc1ccc(F)cc1S(=O)(=O)N1CCN(C2CCN(C)C2=O)CC1 (configuration not stated)", "RP-LC retention time", 550],
  ["Cc1ccc(S(=O)(=O)N2CCN(CCc3cn(C)c4ncccc34)CC2)cc1", "RP-LC retention time", 632],
  ["O=C(NCCc1ccc(Cl)cc1)C1CCCN(c2ncnc3c2nc2n3CCCCC2)C1 (configuration not stated)", "RP-LC retention time", 838],
  ["CCc1csc(-c2ccc(N3CCN(C(=O)c4ccc(OC)c(OC)c4)CC3)nc2)n1", "RP-LC retention time", 839],
  ["O=C(CSc1ccc(F)cc1)NCC(O)(c1ccccc1)C(F)(F)F (configuration not stated)", "RP-LC retention time", 887],
  ["O=S(=O)(Cc1ccccc1)N1CCN(Cc2cccc(F)c2)C2(CCOCC2)C1", "RP-LC retention time", 745]
]}
